B1: NELF-E aptamer (parent)
chain: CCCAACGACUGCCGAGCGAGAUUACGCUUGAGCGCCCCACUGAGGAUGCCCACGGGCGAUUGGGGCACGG

# Variants of: B1
# procedure.details: HiTS-RAP
# condition.context: with NELF-E (Drosophila)
# label = label 1 if Kd < 8 nM else label 0

Query block: Kd under 8 nM? Item: G7U C50U
Result block: label 0

Query block: Kd under 8 nM? Item: A24G U29C
Result block: label 1

Query block: Kd under 8 nM? Item: `U23C`
Result block: label 1

Query block: Kd under 8 nM? Item: G7C U10G
Result block: label 1

Query block: Kd under 8 nM? Item: A5U A46G
Result block: label 0

Query block: Kd under 8 nM? Item: `A59C`
Result block: label 0

Query block: Kd under 8 nM? Item: `G48A`
Result block: label 0

Query block: Kd under 8 nM? Item: A8G A31G
Result block: label 1

Query block: Kd under 8 nM? Item: A8U G34A
Result block: label 1

Query block: Kd under 8 nM? Item: G14U U28G
Result block: label 0

Query block: Kd under 8 nM? Item: C12G G18A
Result block: label 1

Query block: Kd under 8 nM? Item: `G26U`
Result block: label 1

Query block: Kd under 8 nM? Item: C6G C53G
Result block: label 1

Query block: Kd under 8 nM? Item: C6U U23G
Result block: label 1

Query block: Kd under 8 nM? Item: A5U A8G
Result block: label 1

Query block: Kd under 8 nM? Item: A5G U10C
Result block: label 1

Query block: Kd under 8 nM? Item: U61C A67G
Result block: label 0

Query block: Kd under 8 nM? Item: G11U U61A
Result block: label 0

Query block: Kd under 8 nM? Item: U23G A39U
Result block: label 0

Query block: Kd under 8 nM? Item: C6G G30U
Result block: label 1

Query block: Kd under 8 nM? Item: U22A A24G
Result block: label 1

Query block: Kd under 8 nM? Item: C9G G45U
Result block: label 1

Query block: Kd under 8 nM? Item: U10G C50U
Result block: label 0

Query block: Kd under 8 nM? Item: U29G C40U
Result block: label 0

Query block: Kd under 8 nM? Item: A4U A39U
Result block: label 0

Query block: Kd under 8 nM? Item: `C57A`
Result block: label 0

Query block: Kd under 8 nM? Item: A5G A43G
Result block: label 0

Query block: Kd under 8 nM? Item: G7U C13G
Result block: label 1

Query block: Kd under 8 nM? Item: A4G G11A
Result block: label 1

Query block: Kd under 8 nM? Item: A4G A39U
Result block: label 0

Query block: Kd under 8 nM? Item: `U41C`
Result block: label 0

Query block: Kd under 8 nM? Item: U23G G64C
Result block: label 1

Query block: Kd under 8 nM? Item: C13G U41C
Result block: label 0

Query block: Kd under 8 nM? Item: C6G C50U
Result block: label 0

Query block: Kd under 8 nM? Item: A4U C6U
Result block: label 1

Query block: Kd under 8 nM? Item: U10G C37A
Result block: label 0

Query block: Kd under 8 nM? Item: C6A C13G
Result block: label 1

Query block: Kd under 8 nM? Item: U23G U60G
Result block: label 1

Query block: Kd under 8 nM? Item: U23G U41A
Result block: label 0

Query block: Kd under 8 nM? Item: C6G C35G
Result block: label 1

Query block: Kd under 8 nM? Item: U23G G55U
Result block: label 0

Query block: Kd under 8 nM? Item: G11U A15G
Result block: label 1

Query block: Kd under 8 nM? Item: C6U A8G
Result block: label 1

Query block: Kd under 8 nM? Item: `A31U`
Result block: label 1

Query block: Kd under 8 nM? Item: C9G G55A
Result block: label 0

Query block: Kd under 8 nM? Item: C13G G54A
Result block: label 0

Query block: Kd under 8 nM? Item: G11U C12U
Result block: label 1

Query block: Kd under 8 nM? Item: C6G C40U
Result block: label 0

Query block: Kd under 8 nM? Item: `A19U`
Result block: label 1

Query block: Kd under 8 nM? Item: A8G A21G
Result block: label 1

Query block: Kd under 8 nM? Item: `G55U`
Result block: label 1

Query block: Kd under 8 nM? Item: G14U C57U
Result block: label 1

Query block: Kd under 8 nM? Item: `C66A`
Result block: label 1

Query block: Kd under 8 nM? Item: C6G G11U
Result block: label 1

Query block: Kd under 8 nM? Item: A8G C9A
Result block: label 1

Query block: Kd under 8 nM? Item: U22G G63A
Result block: label 0

Query block: Kd under 8 nM? Item: G7A A39G
Result block: label 0

Query block: Kd under 8 nM? Item: A5U A24G
Result block: label 1

Query block: Kd under 8 nM? Item: A8U G20U
Result block: label 1

Query block: Kd under 8 nM? Item: U41G G55U
Result block: label 1

Query block: Kd under 8 nM? Item: A24G A46U
Result block: label 0

Query block: Kd under 8 nM? Item: U22C U29G
Result block: label 1

Query block: Kd under 8 nM? Item: `C57G`
Result block: label 1

Query block: Kd under 8 nM? Item: U10G G18U
Result block: label 1

Query block: Kd under 8 nM? Item: A8U A46G
Result block: label 0

Query block: Kd under 8 nM? Item: U22G C57U
Result block: label 1

Query block: Kd under 8 nM? Item: C13G A19G
Result block: label 1

Query block: Kd under 8 nM? Item: G11U A15U
Result block: label 1

Query block: Kd under 8 nM? Item: G7C G11U
Result block: label 1

Query block: Kd under 8 nM? Item: U22G G34A
Result block: label 0

Query block: Kd under 8 nM? Item: G14A U41G
Result block: label 1

Query block: Kd under 8 nM? Item: U23G G32U
Result block: label 1

Query block: Kd under 8 nM? Item: U23G U61A
Result block: label 0

Query block: Kd under 8 nM? Item: A8U U10A
Result block: label 1

Query block: Kd under 8 nM? Item: U29C C66U
Result block: label 1

Query block: Kd under 8 nM? Item: U10C C57U
Result block: label 1

Query block: Kd under 8 nM? Item: U23G C53U
Result block: label 1

Query block: Kd under 8 nM? Item: A4G A8U
Result block: label 1

Query block: Kd under 8 nM? Item: U22G C35G
Result block: label 1

Query block: Kd under 8 nM? Item: A4U C13U
Result block: label 1

Query block: Kd under 8 nM? Item: A8G A24G
Result block: label 1

Query block: Kd under 8 nM? Item: C9G A59U
Result block: label 0

Query block: Kd under 8 nM? Item: G14U G20A
Result block: label 1

Query block: Kd under 8 nM? Item: C12G G64A
Result block: label 0

Query block: Kd under 8 nM? Item: A4G G34U
Result block: label 1

Query block: Kd under 8 nM? Item: `G34A`
Result block: label 1

Query block: Kd under 8 nM? Item: U10G G55A
Result block: label 0

Query block: Kd under 8 nM? Item: A5G C13A
Result block: label 1

Query block: Kd under 8 nM? Item: U10G C57A
Result block: label 0

Query block: Kd under 8 nM? Item: `A8U`
Result block: label 1
